system_name: T1, SWSAP1 D96A (Walker B);hSWS1 (Homo sapiens;Homo sapiens, UniProt Q6NVH7;Q19AV6 22-250;1-140, D117A|)
T1 sequence 1: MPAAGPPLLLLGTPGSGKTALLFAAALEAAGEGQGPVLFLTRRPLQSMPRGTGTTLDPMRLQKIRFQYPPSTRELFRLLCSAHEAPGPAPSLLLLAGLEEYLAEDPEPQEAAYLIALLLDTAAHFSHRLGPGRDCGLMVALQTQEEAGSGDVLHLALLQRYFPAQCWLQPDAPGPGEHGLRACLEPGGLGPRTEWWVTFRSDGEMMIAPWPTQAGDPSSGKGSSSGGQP
T1 sequence 2: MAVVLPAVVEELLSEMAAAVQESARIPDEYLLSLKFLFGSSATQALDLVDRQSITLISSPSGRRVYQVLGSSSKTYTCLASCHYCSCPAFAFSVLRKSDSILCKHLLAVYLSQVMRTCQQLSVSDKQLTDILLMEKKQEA
test_name: fluorescence polarization; 2 mM ADP; FPA: 5 nM 6-FAM DNA, 37 C, 2 mM nucleotide where stated (buffer not given in material); EMSA: 0.05 uM 6-FAM DNA, 5%/15% native PAGE; RAD51 filaments: 2 mM ATP
experimental_setup: protein: recombinant;recombinant; tags: N-terminal 6xHis-TEV, cleaved;none; copies: 1;1; label: 3' 6-FAM on strand 1; 5' overhang 20 nt
measurement_label: Kd (µM)
Give the quantity in µM, number only.

Request: Using the record for 5'-overhang (dsDNA) DNA 1: TTTTTTTTTTTTTTTTTTTTCTTGACAAGCTTGCGCACT DNA 2: AGTGCGCAAGCTTGTCAAG , report its Kd.
Result: 5.1

Data provenance: paper PMC12167799
